# measured-on: Human CLDN18.1 (human) (UniProt P56856)
# Sequence (P56856 whole entry): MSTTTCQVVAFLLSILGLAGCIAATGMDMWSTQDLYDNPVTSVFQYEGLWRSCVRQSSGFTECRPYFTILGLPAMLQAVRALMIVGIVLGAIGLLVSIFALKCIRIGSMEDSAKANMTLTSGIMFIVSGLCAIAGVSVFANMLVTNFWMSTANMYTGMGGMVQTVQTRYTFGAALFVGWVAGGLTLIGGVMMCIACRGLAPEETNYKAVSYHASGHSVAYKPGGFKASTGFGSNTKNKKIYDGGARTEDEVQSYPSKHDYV
# assay-summary: FACS, hybridoma culture supernatant on 293T-human CLDN18.1 cells (permeable membrane treatment)
# maps each entry to its Average fluorescence intensity
metric-name: Average fluorescence intensity

INSERT INTO results (binder, experimental_value) VALUES
  ('14E12 (hybridoma clone, murine CLDN18.2 antigen-binding protein) (antibody, V domains shown) VH: EVQLQESGPELVKPGASVKMSCKASGYTFTNYIIHWVKQKPGQGLEWIGYINPYTDGPKYNEKFKGRATLTSDKSSSTAYMEFSSLTSEDSAVYYCARLNRGNAMDYWGQGTSVTVSS VL: DIVMTQSPSSLSVSAGEKVTMSCKSSQSLLNNGNQKNYLAWYQQKPGQPPKLLIYGASTRESGVPDRFTGSGSGTDFALTISSVQAEDLAVYYCQNDLYYPFTFGSGTKLDIKR', 2580),
  ('7E3 (hybridoma clone, murine CLDN18.2 antigen-binding protein) (antibody, V domains shown) VH: EVQLQQSGPELVKPGASVKMSCKASGYTFTNYIIHWVKQKPGQGLEWIGYINPYTDGPKYNEKFKGRATLTSDKSSSTAYMEFSSLTSEDSAVYYCARLNRGNAMDYWGQGTSVTVSS VL: DIVMTQSPSSLTVTVREKVTLSCKSSQSLLNSGNQKNYLTWYQQKPGQPPKLLIYWASTRESGVPDRFTGSGSGTDFTLTISSVQAEDLAVYYCQNVYIYPFTFGAGTKLELKR', 3040),
  ('17B10 (hybridoma clone, murine CLDN18.2 antigen-binding protein) (antibody, V domains shown) VH: EVQLQESGPELVKPGASVKMSCKASGYTFTNYIIHWVKQKPGQGLEWIGYINPYTDGPKYNEKFKGRATLTSDKSSSTAYMEFSSLTSEDSAVYYCARLNRGNAMDYWGQGTSVTVSS VL: DIVMTQSPSSLTVTAGEKVTMNCKSSQSLLNSGNQKNYLTWYQQKPGQPPKLLIYWASTRESGVPDRFTGSGSGTDFTLTISSVQAEDLAVYYCQNDYSFPFTFGSGTKLEIKR', 2400),
  ('5E6 (hybridoma clone, murine CLDN18.2 antigen-binding protein) (antibody, V domains shown) VH: EVQLQQSGPELVKPGASVKMSCKASGYTFTNYVMNWVKQKPGQGLEWIGYINPYNDGTKYNERFKGKATLTSDKSSSTAFMEVSSLTSEDSAVYYCARLYRGNAMDYWGQGTSVTVSS VL: DIVMTQSPSSLTVTVREKVTLSCKSSQSLLNSGNQKNYLTWYQQKPGQPPKLLIYWASTRESGVPDRFTGSGSGTDFTLTISSVQAEDLAVYYCQNVYIYPFTFGAGTKLELKR', 4330);
